assay-metric: flash point

molecule="CCCCCCC(O)C/C=C\\CCCCCCCC(=O)OCC(COC(=O)CCCCCCC/C=C\\CC(O)CCCCCC)OC(=O)CCCCCCC/C=C\\CC(O)CCCCCC (stereo not given)" assay_metric="flash point" value_measured="229.00 °C"
molecule=Cc1c(Cl)cccc1Cl assay_metric="flash point" value_measured="82.00 °C"
molecule=CCCCCCCCS assay_metric="flash point" value_measured="46.00 °C"
molecule="CC(C)(C)OOC(=O)c1ccccc1 [tert-butyl benzenecarboperoxoate]" assay_metric="flash point" value_measured="93.00 °C"
molecule="COCCOCCOCCOCCO [2-[2-[2-(2-methoxyethoxy)ethoxy]ethoxy]ethanol]" assay_metric="flash point" value_measured="161.00 °C"
molecule="CCCCCCCC/C=C\\CCCCCCCC(=O)O [(Z)-octadec-9-enoic acid]" assay_metric="flash point" value_measured="189.00 °C"
molecule="C=CC(=O)OCCO [2-hydroxyethyl prop-2-enoate]" assay_metric="flash point" value_measured="101.00 °C"
molecule="CC(=O)OC1CCCCC1 [cyclohexyl acetate]" assay_metric="flash point" value_measured="58.00 °C"
molecule="CNC(C)=O [N-methylacetamide]" assay_metric="flash point" value_measured="108.00 °C"
molecule=c1ccc2occc2c1 assay_metric="flash point" value_measured="56.00 °C"

* * *

Measured flash point accompanies every entry in the list below.
assay-metric: flash point (°C)

molecule=CCCCCC(C)(C)C assay_metric="flash point" readout_unit=°C value_measured=19.0
molecule=CCCCCCCCCCCCCCCC assay_metric="flash point" readout_unit=°C value_measured=134.0
molecule="Cc1cc(C)c(C)cc1C [1,2,4,5-Tetramethylbenzene]" assay_metric="flash point" readout_unit=°C value_measured=73.0

* * *

Assign TRUE whenever flash point does not fall below 100 °C; assign FALSE whenever it does.

molecule="c1cc[c]([Sn]([c]2ccccc2)([c]2ccccc2)[c]2ccccc2)cc1 [TETRAPHENYLTIN]" class_assignment=TRUE
molecule="C#[C][Sn]([CH2]CCC)([CH2]CCC)[CH2]CCC [ETHYNYLTRI-n-BUTYLTIN]" class_assignment=FALSE
molecule="CCC[CH2][Sn]([I])([CH2]CCC)[CH2]CCC [TRI-n-BUTYLIODOTIN]" class_assignment=TRUE

* * *

Measured flash point accompanies every entry in the list below.
assay-metric: flash point (°C)

compound="CCCC(=O)OCC(C)C [isobutylbutanoate]" assay_metric="flash point" readout_unit=°C value_measured=46
compound=CC(=O)C(C)(C)C assay_metric="flash point" readout_unit=°C value_measured=5
compound=CCc1ccc(N)cc1 assay_metric="flash point" readout_unit=°C value_measured=97
compound="CCC(C)C(C)C (stereo not drawn)" assay_metric="flash point" readout_unit=°C value_measured=-15
compound=CCC#CCCCCC assay_metric="flash point" readout_unit=°C value_measured=38
compound=CC(C)(C)C(C)(C)C assay_metric="flash point" readout_unit=°C value_measured=-0
compound="CCN(C=O)CC [N,N-diethylformamide]" assay_metric="flash point" readout_unit=°C value_measured=65
compound="CCCC(C)Cl (stereo not drawn)" assay_metric="flash point" readout_unit=°C value_measured=1
compound="C=CC(C)CC (stereo not drawn)" assay_metric="flash point" readout_unit=°C value_measured=-33
compound="O=C1CCCC1C1CCCC1 (stereo not drawn)" assay_metric="flash point" readout_unit=°C value_measured=90
compound=CCC=O assay_metric="flash point" readout_unit=°C value_measured=-27
compound="CCCCSSCCCC [dibutyldisulfide]" assay_metric="flash point" readout_unit=°C value_measured=93
compound=CCCc1cccc(C)c1 assay_metric="flash point" readout_unit=°C value_measured=52

* * *

assay-metric: flash point (°C)

molecule="C=CC(=O)OCCC#N [2-cyanoethyl prop-2-enoate]" readout_unit=°C value_measured=124.00
molecule="CC(=O)CC(=O)Nc1ccc(C)cc1C [N-(2,4-dimethylphenyl)-3-oxobutanamide]" readout_unit=°C value_measured=171.00
molecule=Clc1ccc(Cl)cc1 readout_unit=°C value_measured=66.00
molecule=CC(=O)Oc1ccccc1C(=O)O readout_unit=°C value_measured=250.00
molecule="CC12CCC(CC1)C(C)(C)O2 [1,3,3-trimethyl-2-oxabicyclo[2.2.2]octane]" readout_unit=°C value_measured=49.00
molecule="CCNCCO [2-(ethylamino)ethanol]" readout_unit=°C value_measured=71.00
molecule="CC(C)(C)C(=O)C(Oc1ccc(Cl)cc1)n1cncn1 (configuration not stated)" readout_unit=°C value_measured=72.00
molecule="CN(C)C(=S)[S-].CN(C)C(=S)[S-].[Zn+2] [zinc;N,N-dimethylcarbamodithioate]" readout_unit=°C value_measured=93.00
molecule="CC(CCN(C)C)N(C)C (configuration not stated)" readout_unit=°C value_measured=46.00
molecule=CCOCC(=O)O readout_unit=°C value_measured=98.00
molecule="CCCCOC(=O)CCC(=O)OCCCC [dibutyl butanedioate]" readout_unit=°C value_measured=135.00
molecule="CC[Si](Cl)(Cl)Cl [trichloro(ethyl)silane]" readout_unit=°C value_measured=22.00
molecule="C=C(C)C(=O)OCC1CO1 (configuration not stated) [oxiran-2-ylmethyl 2-methylprop-2-enoate]" readout_unit=°C value_measured=83.00
molecule=CCCC(C)C readout_unit=°C value_measured=-29.00
molecule=O=C1CCCCCN1 readout_unit=°C value_measured=125.00
molecule=C=CCc1ccc2c(c1)OCO2 readout_unit=°C value_measured=98.00
molecule="CCCCOCN(C(=O)CCl)c1c(CC)cccc1CC [N-(butoxymethyl)-2-chloro-N-(2,6-diethylphenyl)acetamide]" readout_unit=°C value_measured=114.00
molecule=Cc1ccc(C(C)C)cc1 readout_unit=°C value_measured=47.00
molecule=O=C(O)CCCCC(=O)O readout_unit=°C value_measured=191.00
molecule=Cc1ccc(N)cc1 readout_unit=°C value_measured=87.00
molecule=C1CCCNCC1 readout_unit=°C value_measured=37.00
molecule=C#CCBr readout_unit=°C value_measured=10.00

* * *

Measured flash point accompanies every entry in the list below.
assay-metric: flash point (°C)

compound="C=COC(C)=O [Vinyl acetate]" value_measured=-8.00
compound=N#CCCC#N value_measured=132.00
compound=COc1ccccc1 value_measured=52.00
compound="COC(=O)c1ccccc1O [Methyl salicylate]" value_measured=101.00
compound=Oc1ccc(Cl)cc1 value_measured=121.00
compound=O=[N+]([O-])c1ccccc1-c1ccccc1 value_measured=143.00
compound=O=Cc1ccccc1O value_measured=78.00
compound=CC(=O)O value_measured=43.00
compound=O=Cc1ccccc1 value_measured=64.00
compound="C=C(C)C1CC=C(C)CC1 (stereo not drawn)" value_measured=45.00
compound=OCc1ccccc1 value_measured=101.00
compound=Cc1ccccc1C value_measured=32.00
compound=Nc1ccc(N)cc1 value_measured=156.00
compound="O=C1OC(=O)c2ccccc21 [Phthalic anhydride]" value_measured=151.00
compound=CC(C)=O value_measured=-18.00
compound=ClCC(Cl)CCl value_measured=82.00
compound="O=C(OCc1ccccc1)c1ccccc1 [Benzyl benzoate]" value_measured=148.00
compound="C=CC(=O)OCC [Ethyl acrylate]" value_measured=16.00
compound="C=CCOC(C)=O [Allyl acetate]" value_measured=21.00
compound="C=CCBr [Allyl bromide]" value_measured=-1.00
compound=CO value_measured=12.00
compound=O=[N+]([O-])c1ccccc1 value_measured=88.00
compound=Oc1ccc2ccccc2c1 value_measured=153.00
compound="CC(O)CCO (stereo not drawn)" value_measured=121.00
compound=Clc1ccccc1 value_measured=29.00
compound="FC(F)(F)c1ccccc1 [Benzotrifluoride]" value_measured=12.00
compound="CCC(C)OC(C)=O (stereo not drawn) [sec-Butyl acetate]" value_measured=31.00
compound=CCNc1ccccc1 value_measured=85.00

* * *

Assign YES whenever flash point does not fall below 40 °C; assign NO whenever it does.

compound="CCc1cccc(C)c1N [2-ethyl-6-methylaniline]" class_assignment=YES
compound="CCCCCC[N+](=O)[O-] [1-nitrohexane]" class_assignment=YES
compound="c1ccc(Oc2ccccc2)cc1 [diphenylether]" class_assignment=YES
compound="CC(=O)N(C)C [N,N-dimethylacetamide]" class_assignment=YES
compound="CC(C)(C)N [tert-butylamine]" class_assignment=NO
compound="CCC(C)(C)OC [methyltert-pentylether]" class_assignment=NO
compound="C=C(C)CO [2-methyl-2-propen-1-ol]" class_assignment=NO
compound="CC(O)CO (stereo unspecified) [1,2-propanediol]" class_assignment=YES
compound="CSC(C)(C)C [tert-butylmethylsulfide]" class_assignment=NO
compound="CC(C)CC(C)C [2,4-dimethylpentane]" class_assignment=NO
compound="CC(C)(C)c1ccccc1O [2-tert-butylphenol]" class_assignment=YES
compound="CCCCCCCl [1-chlorohexane]" class_assignment=NO
compound="CCCCCOC(=O)c1ccccc1 [pentylbenzoate]" class_assignment=YES
compound="CCCc1cccs1 [2-propylthiophene]" class_assignment=NO
compound="CCOCc1ccccc1 [benzylethylether]" class_assignment=YES
compound="CCCC(C)Br (stereo unspecified) [2-bromopentane]" class_assignment=NO
compound="CC(C)C1CCCC1 [isopropylcyclopentane]" class_assignment=NO
compound="C/C=C/CCCCC [trans-2-octene]" class_assignment=NO
compound="CC/C=C\\CCCC [cis-3-octene]" class_assignment=NO
compound="CCCCC(C)C(C)C (stereo unspecified) [2,3-dimethylheptane]" class_assignment=NO
compound="CCCCCCCO [1-heptanol]" class_assignment=YES
compound="CSC [dimethylsulfide]" class_assignment=NO
compound="CC(C)COC(=O)C(C)C [isobutyl2-methylpropanoate]" class_assignment=NO
compound="CCc1ccc(Cl)cc1 [1-chloro-4-ethylbenzene]" class_assignment=YES
compound="C1COCCN1 [morpholine]" class_assignment=NO
compound="CCC(C)Cc1ccccc1 (stereo unspecified) [1-phenyl-2-methylbutane]" class_assignment=YES
compound="CC1CCCO1 (stereo unspecified) [2-methyltetrahydrofuran]" class_assignment=NO
compound="ClCCCCCl [1,4-dichlorobutane]" class_assignment=YES
compound="CC(C)C(C)C(C)(C)C (stereo unspecified) [2,2,3,4-tetramethylpentane]" class_assignment=NO
compound="C/C=C\\CC [cis-2-pentene]" class_assignment=NO
compound="C=CC(=O)OCCCC [butylacrylate]" class_assignment=NO
compound="C=CCI [3-iodo-1-propene]" class_assignment=NO
compound="CCCCCCCCCC(C)O (stereo unspecified) [2-undecanol]" class_assignment=YES
compound="CCCC(C)O (stereo unspecified) [2-pentanol]" class_assignment=NO
compound="CCC(C)c1ccccc1N (stereo unspecified) [2-sec-butylaniline]" class_assignment=YES
compound="CC(C)(C)c1ccccc1 [tert-butylbenzene]" class_assignment=YES
compound="CCCCCCCC(=O)CCC [4-undecanone]" class_assignment=YES
compound="CCCC1CCC(=O)CC1 [4-propylcyclohexanone]" class_assignment=YES
compound="C=CCCCCCCCCCCCC [1-tetradecene]" class_assignment=YES
compound="CC(C)c1ccc(C(C)C)cc1 [1,4-diisopropylbenzene]" class_assignment=YES
compound="c1ccc(C2CCCCC2)cc1 [cyclohexylbenzene]" class_assignment=YES
compound="CCCc1cccc(C)c1C [1,2-dimethyl-3-propylbenzene]" class_assignment=YES
compound="CCNC1CCCCC1 [N-ethylcyclohexanamine]" class_assignment=YES
compound="CCCC#CCCCC [4-nonyne]" class_assignment=NO
compound="CCCCSCCCC [dibutylsulfide]" class_assignment=YES
compound="CCCCCCCCCCC(C)O (stereo unspecified) [2-dodecanol]" class_assignment=YES
compound="CC1CCCC(=O)C1 (stereo unspecified) [3-methylcyclohexanone]" class_assignment=YES
compound="CCc1cccc(O)c1 [3-ethylphenol]" class_assignment=YES
compound="C=C(C)C(=O)OCCCC [butylmethacrylate]" class_assignment=YES
compound="C#CCC(C)C [4-methyl-1-pentyne]" class_assignment=NO
compound="CCCC(=O)OCc1ccccc1 [benzylbutanoate]" class_assignment=YES
